Origin of values: PubChem BioAssay

# protocol-text: small-molecule microarray binders of probe aShh, primary screen, biochemical, biotinylated probe, 635/667 nm fluorescence (AID 1114);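 note: probe is biotin-labelled aShh protein from a stem cell growth factor screen; measures binding of labelled protein to compounds printed on the slide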
# test-conditions: higher = more signal
Class membership depends on composite z-score alone; the intervals are lower range = under -0.2, middle range = from -0.2 up to 0.006, upper range = 0.006 and over

Field: example entries. Status: answers known.
compound: COC(=O)C(C(=O)OC)C1CCCC(=O)C1 (stereo unspecified)
group: middle range
--
compound: CO[C@H]1COC(=O)[C@H](C)COC(=O)[C@H](C)NC(=O)CC=C[C@H]1C
group: upper range
--
compound: COC(=O)[C@@H]1CC[C@H](C)[C@@H](c2ccc(C)cc2)N1C(=O)c1ccc(C=NOC[C@H]2O[C@H](c3ccccc3)C=C[C@@H]2Oc2ccc(OC)cc2)cc1
group: lower range

Category lookup for the compound CCOC(=O)[C@H](CC(C)C)NC(=O)CCC1CC(OC(=O)NCc2ccc3c(c2)OCO3)CC2(CCCC(COC(=O)NCCc3ccccc3OC)O2)O1 (stereo partly specified)
middle range

Assign a bin to `CCOC(=O)NN=C1C[C@@H](O)[C@@H](O)[C@@H]2[C@@H]3C(=O)N(c4ccc(F)cc4F)C(=O)[C@@H]3CC[C@H]12`
lower range

Determine which band this compound sits in: CCOC(=O)[C@H](CC(C)C)NC(=O)CCC1CC(OC(=O)NCCc2ccc(F)cc2)CC2(CCCC(COC(=O)NCCOC)O2)O1 (stereo partly specified)
middle range

Record `CCOC(=O)CCN1C(=O)[C@H]2[C@H]3[C@H](O)[C@H](O)CC(=NO[C@@H]4O[C@H](CO)[C@@H](O)[C@H](O)[C@H]4O)[C@H]3CC[C@H]2C1=O` — which class?
middle range

State the band of CC(CCN1CCc2nc(-c3ccccc3)c(-c3ccccc3)cc2C1)=NOC(C)CN1CCCc2nc(C)c(C)cc21 (stereo unspecified)
upper range

Could you tell me which band `O=C1[C@H]2CCn3c(=O)n(Cc4cc5c(cc4Cl)OCO5)c(=O)n3[C@H]2[C@H](O)[C@@H]2O[C@H]12` belongs to?
lower range

Tag the class for `CCCC[C@H]1CN2[C@@H](CC[C@@H](C)[C@@H]2c2ccc(Br)cc2)C(=O)O1`
upper range

Lab note: sort CCOC(=O)[C@H](Cc1ccccc1)NC(=O)CCC1CC(OC(=O)NCc2ccc3c(c2)OCO3)CC2(CCCC(COC(=O)NCCCN3CCCC3=O)O2)O1 (stereo partly specified) into the matching composite z-score band.
lower range

Please indicate the class for `C[C@@H](c1ccccc1)N1C(=O)[C@H]2[C@H]3[C@H](O)[C@H](O)CC(=NNC(=O)OCc4ccccc4)[C@@H]3CC[C@H]2C1=O` based on its composite z-score.
upper range

Class label required: `CCOC(=O)CCN1C(=O)[C@H]2[C@H]3[C@H](O)[C@H](O)CC(=NOCC=C(C)CCC=C(C)C)[C@H]3CC[C@H]2C1=O`
lower range

Which composite z-score band matches CC(C)=NOC(C)CN1CCCc2nc(C)c(C)cc21 (stereo unspecified) ?
upper range

Form field 'band' for `COC(=O)C1=C(C)N(Cc2ccccc2)C2=C3C(=O)OCC[C@@H]3[C@@](O)(C(=O)OC)C(=O)N2[C@@H]1c1ccccc1`
upper range

----------
# system-tested: Concanavalin-A (Canavalia ensiformis) (UniProt P02866)
# Sequence (P02866 whole entry, looked up): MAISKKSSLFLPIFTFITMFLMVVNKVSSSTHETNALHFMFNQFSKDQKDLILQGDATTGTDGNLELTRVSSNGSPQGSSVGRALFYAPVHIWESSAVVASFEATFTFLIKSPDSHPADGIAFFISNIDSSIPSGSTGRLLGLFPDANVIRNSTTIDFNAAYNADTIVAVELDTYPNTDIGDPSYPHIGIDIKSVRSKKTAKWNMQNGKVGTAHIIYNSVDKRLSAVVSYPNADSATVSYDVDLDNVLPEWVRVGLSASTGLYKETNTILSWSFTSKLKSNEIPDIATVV
# protocol-text: ConA small-molecule binders, primary screen, artefact control for SMM control protein annotation, biochemical, small-molecule microarray, Alexa647 label, 635 nm (AID 1127)
# test-conditions: ConA-A647 binding fluorescence, higher = more signal
Grouping by measured composite z-score is done with the following cut points: lo: < -0.3; med: ≥ -0.3 and < 0.4; hi: ≥ 0.4

Recorded results for 5 molecules are shown here.
molecule: CC(=O)OC[C@H]1O[C@H](C#CCCc2ccccc2)C=C[C@@H]1OC(C)=O
group: med
//
molecule: CC(C)CN1CCc2nc(-c3ccccc3)c3c(c2C1)CO[C@@H](C)C3
group: hi
//
molecule: COc1ccc(OC[C@@H](CO)OC)cc1
group: med
//
molecule: COC(=O)[C@@H]1CC[C@H](C)[C@@H](c2ccc(C)cc2)N1C(=O)c1ccc(C=NOC[C@@H](O)[C@H]2O[C@@H]3OC(C)(C)O[C@@H]3[C@H]2O)cc1
group: hi
//
molecule: COc1ccc(COC(=O)NN=C2C[C@@H](O)[C@@H](O)[C@@H]3[C@@H]4C(=O)N([C@@H](C)c5ccccc5)C(=O)[C@@H]4CC[C@@H]23)cc1
group: med

Would you mind sorting `CCOC(=O)CCN1C(=O)[C@H]2[C@H]3[C@H](O)[C@H](O)CC(=NNC(=O)OCc4ccccc4)[C@H]3CC[C@H]2C1=O` into the appropriate category?
lo

Any idea which band `O=C1C[C@H](c2ccccc2)[C@H](c2ccc(Br)cc2)O1` is in?
lo

The entry to classify is `C[C@@H](c1ccccc1)N1C(=O)[C@H]2[C@H]3[C@H](O)[C@H](O)CC(=NNC(=O)OCc4ccccc4)[C@@H]3CC[C@H]2C1=O` ; which class holds it?
lo

Would you mind sorting `CC(C)CON=C1C[C@@H](O)[C@@H](O)[C@@H]2[C@@H]3C(=O)N(Cc4ccc5c(c4)OCO5)C(=O)[C@@H]3CC[C@@H]12` into the appropriate category?
hi
